Every entry's value here was drawn from the RNAGym collection of RNA variant scans (doi:10.1073/pnas.2313332121).

B1: TPR t1 (parent)
chain: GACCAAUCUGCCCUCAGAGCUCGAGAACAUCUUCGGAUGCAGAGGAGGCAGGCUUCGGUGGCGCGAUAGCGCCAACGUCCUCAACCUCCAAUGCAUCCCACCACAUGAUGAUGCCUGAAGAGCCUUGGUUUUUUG

variants of: B1; experiment: polymerase ribozyme fitness, log enrichment relative to wild type (log ratio); higher = more active; in vitro selection for triplet polymerase activity
OUTCOME MEASURE: polymerase ribozyme fitness (log ratio)
Lab note: jot down the number only; don't add units.

Consider the following illustrative entries.
- ITEM SEQUENCE: "GACCAAUCUGCCCUCGGAGCUCGAGAACAUCUUCGGAUGCAGAGGAGGCAGGCUUCGGUGGCGCGAUAGCGCCAACGUCCACAACCUCCAAUGCAUCCCACCACAUGAUGAUGCCUGAAGAGCCUUGGUUUUUUG [A16G U81A]"
  OUTCOME MEASURE: "polymerase ribozyme fitness (log ratio)"
  RECORDED MEASUREMENT: -2.36
- ITEM SEQUENCE: "GACCAAUCUGUCCUCAGAGCUCGAGAACAUCUUCGGAUGCAGAGGAGGCAGGCUUCGGUGGCGCGAUAGCGCAAACGUCCUCAACCUCCAAUGCAUCCCACCACAUGAUGAUGCCUGAAGAGCCUUGGUUUUUUG [C11U C73A]"
  OUTCOME MEASURE: "polymerase ribozyme fitness (log ratio)"
  RECORDED MEASUREMENT: -0.524
- ITEM SEQUENCE: "GACCAAUCUGCCCUCAGAGCUCGAGAACAUCUUCGGAUGCAGAGGAUGCAGGAUUCGGUGGCGCGAUAGCGCCAACGUCCUCAACCUCCAAUGCAUCCCACCACAUGAUGAUGCCUGAAGAGCCUUGGGUUUUUG [G47U C53A U129G]"
  OUTCOME MEASURE: "polymerase ribozyme fitness (log ratio)"
  RECORDED MEASUREMENT: -2.44
- ITEM SEQUENCE: "GAUCAAUCUGCCCUCAGAGCUCCAGAACAUCUUCGGAUGCAGAGGAGGCAGGCUUCGGUAGCGCGAUAGCGCCAACGUCCUCAACCUCCAAUGCAUCCCACCACAAGAUGCUGCCUGAAGAGCCUUGGUUUUUUG [C3U G23C G60A U106A A111C]"
  OUTCOME MEASURE: "polymerase ribozyme fitness (log ratio)"
  RECORDED MEASUREMENT: -6.81

In the following, a different variant is considered.
Prompt: Given GACCAAUCUGCCCUCAGAGCUCGAGAACAUCUUUGGAUGCAGAGGAGGCAGGCAUCGGUGACGCGAUAGCGCCAACGUCCUCAACCUCCAAUGCAUCCCACCACAUGAUGAUGCCUGAAGAGCCUUGGUUUUUUG [C34U U54A G61A] , state its recorded polymerase ribozyme fitness (log ratio).
Completion: -4.4
